# Bmax per record follows
- subject.of.test: T1, Human serum albumin (HSA) (human, UniProt P02768 25-609)
- T1 construct: also called human albumin; recombinant human albumin
- assay.method.text: ELISA on coated human albumin, anti-human Fc HRP, A650, one site-total binding fit
Kindly provide the numeric value in A650 only, without the unit symbol.

Examples with answers:
# binder, Bmax (A650)
measured = [
    ("4A01v8 (Fc fusion, not shown: a dimerising Fc or GST; small tags and cut ends, also called Hz4A01v8) VHH: EVQLVESGGGEVQPGGSLRLSCAASGFAFSTSGMVWVRQAPGKGLEWVSTISDNARIIRYAESVKGRFTISRDNAKNTLYLQMNSLRAEDTAVYYCATYRAGSRIGSYEDYYRGQGTLVTVKP", 0.955),
    ("4A01v4 (Fc fusion, not shown: a dimerising Fc or GST; small tags and cut ends, also called Hz4A01v4) VHH: EVQLVESGGGEVQPGGSLRLSCAASGFAFSTSGMVWVRQAPGKGLEWVSTISDESRIIRYAESVKGRFTISRDNAKNTLYLQMNSLRAEDTAVYYCATYRAGSRIGSYEDYYRGQGTLVTVKP", 0.947),
    ("4A01v6 (Fc fusion, not shown: a dimerising Fc or GST; small tags and cut ends, also called Hz4A01v6) VHH: EVQLVESGGGEVQPGGSLRLSCAASGFAFSTSGMVWVRQAPGKGLEWVSTISDSGRIIRYAESVKGRFTISRDNAKNTLYLQMNSLRAEDTAVYYCATYRAGSRIGSYEDYYRGQGTLVTVKP", 0.94),
]

The record that follows has no Bmax shown yet.
Note Bmax for the binder shown: 4A01v5 (Fc fusion, not shown: a dimerising Fc or GST; small tags and cut ends, also called Hz4A01v5) VHH: EVQLVESGGGEVQPGGSLRLSCAASGFAFSTSGMVWVRQAPGKGLEWVSTISDEGRIIRYAESVKGRFTISRDNAKNTLYLQMNSLRAEDTAVYYCATYRAGSRIGSYEDYYRGQGTLVTVKP 0.957
